The following molecules are shown together with reported pIC50 values.
# System: Trypanosoma cruzi
# procedure_details: GSK_TCAKS: pIC50 Trypanosoma cruzi viability assay using beta-GAL activity. This assay was run at single shot at 5uM compound concentration per well. The biological reagents consisted of NIH-3T3 host cells and trypomastigotes parasitic cells; both cell types were set to a 3.3 * 10^5 cells/mL dilution in assay DMEM by means of a CASY cell counter device using a 60um capillary. 6 uL of the mixture were dispensed per well (about 1 * 10^3 host-cells and 1 * 10^3 parasites) with a Multidrop Combi dispenser. […] In all wells, the percentage of DMSO never exceeded 0.5%. Plates incubated for four days at 37C, 5% CO2. The substrate used for the assay fluorescence intensity (FLINT) readout was resorufin-beta-D-galactopiranoside (Sigma-Aldrich) at 5uM per well. It was diluted in PBS supplemented with the soft detergent Igepal (Fluka).
# Assay type: functional, organism-based, Mus musculus
# condition_context: Tulahuen, NIH3T3
pIC50: −log10 of the molar value.

[
  {
    "molecule": "O=C(CSc1ccc(F)cc1)N[C@@H](Cc1c[nH]cn1)C(=O)NCCc1ccccc1",
    "pIC50": 6.35
  },
  {
    "molecule": "N#Cc1ccc(C(=O)Nc2cccc(-c3cccc(CN4CCC(O)CC4)c3)c2)cc1",
    "pIC50": 5.30
  },
  {
    "molecule": "COc1ccc(C(=O)Nc2cc(C(F)(F)F)ccc2N2CCOCC2)c(OC)c1",
    "pIC50": 6.00
  },
  {
    "molecule": "O=C1CN(C2CCCc3c(OCc4ccncc4)cccc32)C(=O)N1C1CCCCC1 (stereo unspecified)",
    "pIC50": 6.60
  },
  {
    "molecule": "COc1cccc(Nc2cc(C)nc(-c3ccccn3)n2)c1",
    "pIC50": 5.50
  },
  {
    "molecule": "O=C(Nc1nc2ccccc2[nH]1)c1c(O)c2cccc3c2n(c1=O)CC3",
    "pIC50": 4.70
  },
  {
    "molecule": "Cc1nccn1C1CCCN(C(=O)c2cc3c(F)cccc3s2)C1 (stereo unspecified)",
    "pIC50": 6.20
  },
  {
    "molecule": "COc1ccc(-c2csc(NC(=O)c3ccc([N+](=O)[O-])s3)n2)cc1OC",
    "pIC50": 7.00
  },
  {
    "molecule": "O=c1nc(NCCCNCc2cc(Br)cc(Br)c2)[nH]c2ccsc12",
    "pIC50": 6.20
  },
  {
    "molecule": "C=CCOCC1Cn2nc([N+](=O)[O-])nc2O1 (stereo unspecified)",
    "pIC50": 6.30
  },
  {
    "molecule": "O=C(NCCc1cccnc1)c1ccc(-c2ccccc2F)o1",
    "pIC50": 6.95
  }
]
